These data points were gathered from ChEMBL document CHEMBL5344406.

# Test system: Bacillus subtilis
# METHOD_SUMMARY: Antibacterial activity against Bacillus subtilis assessed as bacterial growth inhibition by serial dilution method
# Assay type: functional
Below: a set of entries, each annotated with reported MIC.
ATTRIBUTE_MEASURED: MIC

structure_smiles_string=O=C(Nc1ccc(F)cc1)OCc1cn(Cc2ccc(Br)cc2)nn1 attribute_measured=MIC meas_value="3.12 µg/mL"
structure_smiles_string=NC(=S)N/N=C/c1cccc(OCc2cn(Cc3ccc(Br)cc3)nn2)c1 attribute_measured=MIC meas_value="6.25 µg/mL"
structure_smiles_string=NC(=O)N/N=C/c1ccccc1OCc1cn(-c2ccccc2)nn1 attribute_measured=MIC meas_value="25 µg/mL"
structure_smiles_string=NC(=S)N/N=C/c1ccc(OCc2cn(Cc3ccc(Br)cc3)nn2)cc1 attribute_measured=MIC meas_value="6.25 µg/mL"
structure_smiles_string=COc1ccc(-n2cc(COc3ccccc3/C=N/NC(N)=O)nn2)cc1 attribute_measured=MIC meas_value="25 µg/mL"
structure_smiles_string=CCn1cc(C(=O)O)c(=O)c2cc(F)c(N3CCNCC3)cc21 attribute_measured=MIC meas_value="3.12 µg/mL"
